Attribute: Ke
Assay system: UniProtKB P41144
Sequence (P41144 whole entry): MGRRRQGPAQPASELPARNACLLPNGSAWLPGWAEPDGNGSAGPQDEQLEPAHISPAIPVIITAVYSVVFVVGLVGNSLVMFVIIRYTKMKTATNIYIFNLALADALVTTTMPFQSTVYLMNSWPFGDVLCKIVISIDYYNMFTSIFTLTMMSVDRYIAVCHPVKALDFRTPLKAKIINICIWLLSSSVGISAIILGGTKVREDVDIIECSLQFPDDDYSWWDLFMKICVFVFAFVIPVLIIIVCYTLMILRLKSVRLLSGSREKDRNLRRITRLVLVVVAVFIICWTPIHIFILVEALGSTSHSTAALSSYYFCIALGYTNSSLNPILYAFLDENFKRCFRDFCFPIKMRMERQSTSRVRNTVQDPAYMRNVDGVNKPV
Experiment notes: Antagonist potency at a concentration of 100 nM
Assay type: functional
Measured metric: Ke

- Entry smiles: "CCN1CC[C@]23c4c5ccc(O)c4O[C@H]2c2[nH]c4c(c2C[C@@]3(O)[C@H]1C5)C[C@@]1(O)[C@H]2Cc3ccc(O)c5c3[C@@]1(CCN2CC1CC1)[C@H]4O5"
  Measured metric: "Ke"
  Result: "4.7 nM"
- Entry smiles: "Oc1ccc2c3c1O[C@H]1c4[nH]c5c(c4C[C@@]4(O)[C@@H](C2)N(CCc2ccccc2)CC[C@]314)C[C@@]1(O)[C@H]2Cc3ccc(O)c4c3[C@@]1(CCN2CC1CC1)[C@H]5O4"
  Measured metric: "Ke"
  Result: "2.4 nM"
- Entry smiles: "CC(=O)N1CC[C@]23c4c5ccc(O)c4O[C@H]2c2[nH]c4c(c2C[C@@]3(O)[C@H]1C5)C[C@@]1(O)[C@H]2Cc3ccc(O)c5c3[C@@]1(CCN2CC1CC1)[C@H]4O5"
  Measured metric: "Ke"
  Result: "30.3 nM"
- Entry smiles: "NCC(=O)N1CC[C@]23c4c5ccc(O)c4O[C@H]2c2[nH]c4c(c2C[C@@]3(O)[C@H]1C5)C[C@@]1(O)[C@H]2Cc3ccc(O)c5c3[C@@]1(CCN2CC1CC1)[C@H]4O5"
  Measured metric: "Ke"
  Result: "9.3 nM"
- Entry smiles: "CCCCCN1CC[C@]23c4c5ccc(O)c4O[C@H]2c2[nH]c4c(c2C[C@@]3(O)[C@H]1C5)C[C@@]1(O)[C@H]2Cc3ccc(O)c5c3[C@@]1(CCN2CC1CC1)[C@H]4O5"
  Measured metric: "Ke"
  Result: "3.8 nM"
- Entry smiles: "Oc1ccc2c3c1O[C@H]1c4[nH]c5c(c4C[C@@]4(O)[C@@H](C2)NCC[C@]314)C[C@@]1(O)[C@H]2Cc3ccc(O)c4c3[C@@]1(CCN2CC1CC1)[C@H]5O4"
  Measured metric: "Ke"
  Result: "2.5 nM"

----------
Assay system: Delta-type opioid receptor (Mus musculus)
Experiment notes: Inhibitory concentration was tested on electrically stimulated mouse vas deferens using DADLE as delta opioid receptor agonist at 100 nM of the compound
Format: functional
Attribute: Ratio
Measured metric: Ratio

- Entry smiles: "CC(=O)N1CC[C@]23c4c5ccc(O)c4O[C@H]2c2[nH]c4c(c2C[C@@]3(O)[C@H]1C5)C[C@@]1(O)[C@H]2Cc3ccc(O)c5c3[C@@]1(CCN2CC1CC1)[C@H]4O5"
  Measured metric: "Ratio"
  Numeric readout: 2.8
- Entry smiles: "CCCCCN1CC[C@]23c4c5ccc(O)c4O[C@H]2c2[nH]c4c(c2C[C@@]3(O)[C@H]1C5)C[C@@]1(O)[C@H]2Cc3ccc(O)c5c3[C@@]1(CCN2CC1CC1)[C@H]4O5"
  Measured metric: "Ratio"
  Numeric readout: 3.1
- Entry smiles: "Oc1ccc2c3c1O[C@H]1c4[nH]c5c(c4C[C@@]4(O)[C@@H](C2)NCC[C@]314)C[C@@]1(O)[C@H]2Cc3ccc(O)c4c3[C@@]1(CCN2CC1CC1)[C@H]5O4"
  Measured metric: "Ratio"
  Numeric readout: 8.5
- Entry smiles: "NCC(=O)N1CC[C@]23c4c5ccc(O)c4O[C@H]2c2[nH]c4c(c2C[C@@]3(O)[C@H]1C5)C[C@@]1(O)[C@H]2Cc3ccc(O)c5c3[C@@]1(CCN2CC1CC1)[C@H]4O5"
  Measured metric: "Ratio"
  Numeric readout: 2.2
- Entry smiles: "CCN1CC[C@]23c4c5ccc(O)c4O[C@H]2c2[nH]c4c(c2C[C@@]3(O)[C@H]1C5)C[C@@]1(O)[C@H]2Cc3ccc(O)c5c3[C@@]1(CCN2CC1CC1)[C@H]4O5"
  Measured metric: "Ratio"
  Numeric readout: 6.3
- Entry smiles: "Oc1ccc2c3c1O[C@H]1c4[nH]c5c(c4C[C@@]4(O)[C@@H](C2)N(CCc2ccccc2)CC[C@]314)C[C@@]1(O)[C@H]2Cc3ccc(O)c4c3[C@@]1(CCN2CC1CC1)[C@H]5O4"
  Measured metric: "Ratio"
  Numeric readout: 2.4
